- TESTED_ON: bovine serum albumin BSA (Bos taurus)
- Construct: purchased Sigma Aldrich
- Sequence (P02769 25-607): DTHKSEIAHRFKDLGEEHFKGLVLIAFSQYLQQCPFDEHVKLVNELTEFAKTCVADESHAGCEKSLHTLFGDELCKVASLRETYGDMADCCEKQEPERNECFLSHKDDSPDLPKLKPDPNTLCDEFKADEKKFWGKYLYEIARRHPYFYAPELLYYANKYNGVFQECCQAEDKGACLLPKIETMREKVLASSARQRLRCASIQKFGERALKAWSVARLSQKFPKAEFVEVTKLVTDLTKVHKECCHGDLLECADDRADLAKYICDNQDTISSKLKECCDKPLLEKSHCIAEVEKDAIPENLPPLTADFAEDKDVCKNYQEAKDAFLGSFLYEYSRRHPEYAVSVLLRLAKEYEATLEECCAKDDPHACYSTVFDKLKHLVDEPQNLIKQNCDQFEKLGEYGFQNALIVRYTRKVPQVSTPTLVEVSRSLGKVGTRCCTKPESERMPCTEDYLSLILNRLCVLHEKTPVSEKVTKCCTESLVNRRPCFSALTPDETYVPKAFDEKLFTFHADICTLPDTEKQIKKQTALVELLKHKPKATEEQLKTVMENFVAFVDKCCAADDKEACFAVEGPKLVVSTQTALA
- TEST_PROTOCOL: RP TLC on silanized RP-2 plates impregnated with bovine serum albumin
- Type: in vitro ADME
- DETAILS: Rf from BSA-modified RP-2 plate / Rf from clear one (control)
QUANTITY_NAME: RP/C

COMPOUND	MEASURED_RESULT
CC(N)C12CC3CC(CC(C3)C1)C2 (stereo not drawn) [rimantadine]	1.00
CN(C)CCC=C1c2ccccc2CCc2ccccc21 [amitriptyline]	0.94
Nc1ccc(O)c(C(=O)O)c1 [mesalazine]	0.98
CN(C)CCC=C1c2ccccc2COc2ccccc21 [doxepin]	0.93
O=C(c1ccccc1)c1ccc2n1CCC2C(=O)O (stereo not drawn) [ketorolac]	1.00
CC[C@@H](CO)NCCN[C@@H](CC)CO [ethambutol]	0.98

* * *

Property: log kIAM; scope: individual compounds
- TEST_PROTOCOL: HPLC on immobilized artificial membrane column (HPLC-IAM)
- Assay type: physicochemical
- DETAILS: logarithm of retention factor, mobile phase pH 7.4

COMPOUND	log kIAM
CCCc1cc(=O)[nH]c(=S)[nH]1	0.18
CN(C)CCCC1(c2ccc(F)cc2)OCc2cc(C#N)ccc21 (stereo not shown)	0.50
CC(N)C12CC3CC(CC(C3)C1)C2 (stereo not shown)	0.28
CCC(C)n1ncn(-c2ccc(N3CCN(c4ccc(OCC5COC(Cn6cncn6)(c6ccc(Cl)cc6Cl)O5)cc4)CC3)cc2)c1=O (stereo not shown)	0.79
CN1CCC[C@@H]1Cc1c[nH]c2ccc(CCS(=O)(=O)c3ccccc3)cc12	0.55
CC1COc2c(N3CCN(C)CC3)c(F)cc3c(=O)c(C(=O)O)cn1c23 (stereo not shown)	0.49
Nc1ccc(O)c(C(=O)O)c1	0.11
